# experiment.description: Apparent permeability across PAMPA membrane
# Format: ADME
# condition.summary: read-out: permeability
Listed below: Papp values for each entry.
measured.parameter: Papp (×10⁻⁶ cm/s)

[[record]]
smiles_str = "O=C1C[C@@H](c2ccc(O)cc2)Oc2cc(O)cc(O)c21"
test_value = 25.7

[[record]]
smiles_str = "COc1ccc(-c2cc(=O)c3c(O)cc(O)cc3o2)cc1O"
test_value = 76.1

[[record]]
smiles_str = "COc1ccc([C@@H]2CC(=O)c3c(O)cc(O)cc3O2)cc1O"
test_value = 35.7


====

Listed below: Papp B→A values for each entry.
# experiment.description: Apparent permeability from basolateral to apical side in human Caco-2 cells
# Assay type: ADME, cell-based
# condition.summary: read-out: permeability
measured.parameter: Papp B→A (×10⁻⁶ cm/s)

[[record]]
smiles_str = "COc1ccc([C@@H]2CC(=O)c3c(O)cc(O)cc3O2)cc1O"
test_value = 27

[[record]]
smiles_str = "COc1ccc(-c2cc(=O)c3c(O)cc(O)cc3o2)cc1O"
test_value = 12.4

[[record]]
smiles_str = "O=C1C[C@@H](c2ccc(O)cc2)Oc2cc(O)cc(O)c21"
test_value = 51.4


====

Listed below: remaining at 3 h, 15 µM values for each entry.
# experiment.description: Stability in hank's balanced salt solution at 15 uM after 180 mins
# Type: physicochemical
# condition.summary: read-out: Stability
measured.parameter: remaining at 3 h, 15 µM (%)

[[record]]
smiles_str = "COc1ccc([C@@H]2CC(=O)c3c(O)cc(O[C@@H]4O[C@H](CO[C@@H]5O[C@@H](C)[C@H](O)[C@@H](O)[C@H]5O)[C@@H](O)[C@H](O)[C@H]4O)cc3O2)cc1O"
measured_parameter = "remaining at 3 h, 15 µM"
test_value = 86.3

[[record]]
smiles_str = "COc1ccc(-c2cc(=O)c3c(O)cc(O)cc3o2)cc1O"
measured_parameter = "remaining at 3 h, 15 µM"
test_value = 98.4

[[record]]
smiles_str = "COc1ccc([C@@H]2CC(=O)c3c(O)cc(O)cc3O2)cc1O"
measured_parameter = "remaining at 3 h, 15 µM"
test_value = 90.8

[[record]]
smiles_str = "C[C@@H]1O[C@@H](O[C@H]2[C@H](Oc3cc(O)c4c(c3)O[C@H](c3ccc(O)cc3)CC4=O)O[C@H](CO)[C@@H](O)[C@@H]2O)[C@H](O)[C@H](O)[C@H]1O"
measured_parameter = "remaining at 3 h, 15 µM"
test_value = 90.4

[[record]]
smiles_str = "COc1ccc(-c2cc(=O)c3c(O)cc(O[C@@H]4O[C@H](CO[C@@H]5O[C@@H](C)[C@H](O)[C@@H](O)[C@H]5O)[C@@H](O)[C@H](O)[C@H]4O)cc3o2)cc1O"
measured_parameter = "remaining at 3 h, 15 µM"
test_value = 78.4

[[record]]
smiles_str = "O=C1C[C@@H](c2ccc(O)cc2)Oc2cc(O)cc(O)c21"
measured_parameter = "remaining at 3 h, 15 µM"
test_value = 91.2


====

Listed below: remaining at 24 h, 15 µM values for each entry.
# experiment.description: Stability in hank's balanced salt solution at 15 uM after 24 hrs
# Assay type: physicochemical
# condition.summary: read-out: Stability
measured.parameter: remaining at 24 h, 15 µM (%)

[[record]]
smiles_str = "C[C@@H]1O[C@@H](O[C@H]2[C@H](Oc3cc(O)c4c(c3)O[C@H](c3ccc(O)cc3)CC4=O)O[C@H](CO)[C@@H](O)[C@@H]2O)[C@H](O)[C@H](O)[C@H]1O"
measured_parameter = "remaining at 24 h, 15 µM"
unit_string = "%"
test_value = 88.5

[[record]]
smiles_str = "COc1ccc([C@@H]2CC(=O)c3c(O)cc(O[C@@H]4O[C@H](CO[C@@H]5O[C@@H](C)[C@H](O)[C@@H](O)[C@H]5O)[C@@H](O)[C@H](O)[C@H]4O)cc3O2)cc1O"
measured_parameter = "remaining at 24 h, 15 µM"
unit_string = "%"
test_value = 84.9

[[record]]
smiles_str = "O=C1C[C@@H](c2ccc(O)cc2)Oc2cc(O)cc(O)c21"
measured_parameter = "remaining at 24 h, 15 µM"
unit_string = "%"
test_value = 79.9

[[record]]
smiles_str = "COc1ccc([C@@H]2CC(=O)c3c(O)cc(O)cc3O2)cc1O"
measured_parameter = "remaining at 24 h, 15 µM"
unit_string = "%"
test_value = 80

[[record]]
smiles_str = "COc1ccc(-c2cc(=O)c3c(O)cc(O)cc3o2)cc1O"
measured_parameter = "remaining at 24 h, 15 µM"
unit_string = "%"
test_value = 50.9

[[record]]
smiles_str = "COc1ccc(-c2cc(=O)c3c(O)cc(O[C@@H]4O[C@H](CO[C@@H]5O[C@@H](C)[C@H](O)[C@@H](O)[C@H]5O)[C@@H](O)[C@H](O)[C@H]4O)cc3o2)cc1O"
measured_parameter = "remaining at 24 h, 15 µM"
unit_string = "%"
test_value = 0

